target: UniProtKB P00915
Sequence (P00915 whole entry): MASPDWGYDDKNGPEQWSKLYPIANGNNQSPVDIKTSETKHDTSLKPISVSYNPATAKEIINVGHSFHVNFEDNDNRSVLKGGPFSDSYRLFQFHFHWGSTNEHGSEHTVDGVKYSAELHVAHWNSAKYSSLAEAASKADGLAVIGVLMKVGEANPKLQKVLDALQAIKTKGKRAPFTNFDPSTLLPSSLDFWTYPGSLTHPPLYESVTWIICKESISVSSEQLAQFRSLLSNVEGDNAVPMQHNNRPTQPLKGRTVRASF
experimental.endpoint: pKi
Please report pKi as the negative decimal logarithm of the molar concentration, giving only the number.

Tell me reported pKi for NS(=O)(=O)c1ccccc1C#Cc1cccc(F)c1 , tested with UniProtKB P00915. 3.38

====

target: Carbonic anhydrase 9 (Homo sapiens, UniProt Q16790)
Below, each entry is listed with its recorded pKi.
FYI, pKi means -log10 of a concentration in mol per litre.

compound.structure: NS(=O)(=O)c1ccccc1C#Cc1ccccc1
obs.value: 5.20

Item under review: NS(=O)(=O)c1ccccc1C#Cc1cccc(F)c1 . Reported pKi? 5.07
